Data credit: ChEMBL document CHEMBL5291721

Target chain: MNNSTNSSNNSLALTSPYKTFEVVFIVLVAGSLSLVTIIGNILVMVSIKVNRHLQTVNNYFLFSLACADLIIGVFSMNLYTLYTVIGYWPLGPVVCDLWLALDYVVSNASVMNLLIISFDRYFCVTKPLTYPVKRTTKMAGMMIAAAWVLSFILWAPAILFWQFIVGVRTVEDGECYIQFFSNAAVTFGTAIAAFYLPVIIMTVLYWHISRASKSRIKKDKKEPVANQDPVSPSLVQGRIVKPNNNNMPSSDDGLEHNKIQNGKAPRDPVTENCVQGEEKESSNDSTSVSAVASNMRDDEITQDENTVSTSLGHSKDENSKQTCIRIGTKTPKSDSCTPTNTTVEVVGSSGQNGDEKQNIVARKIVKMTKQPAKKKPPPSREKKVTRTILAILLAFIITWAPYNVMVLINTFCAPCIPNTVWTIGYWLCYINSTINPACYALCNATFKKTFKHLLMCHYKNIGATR
Please go through the items and note down their AC50.

Solved cases (3 shown):
compound="CCCCCCCCCCCCCCCCCC(=O)NCCCC[C@H](NC(=O)CC[C@@H](NC(=O)[C@H](C)NC(=O)[C@@H](C)O[C@H]1[C@H](O)[C@@H](CO)OC(O)[C@@H]1NC(C)=O)C(N)=O)C(=O)O (stereo partly specified) [ROMURTIDE]" experimental_readout=AC50 value_reported="> 30 µM"
compound=CC[N+](C)(CC)CCOC(=O)C1c2ccccc2Oc2ccccc21 experimental_readout=AC50 value_reported="0.0126 µM"
compound=C[C@]1(COc2ccc(N3CCC(Oc4ccc(OC(F)(F)F)cc4)CC3)cc2)Cn2cc([N+](=O)[O-])nc2O1 experimental_readout=AC50 value_reported="> 30 µM"

Please give AC50, item by item, for the list that follows.
1. O=C1c2c(O)cccc2Cc2cccc(O)c21
2. CCC(=O)O[C@@H]1CC(=O)O[C@H](C)C/C=C/C=C/[C@H](OC(C)=O)[C@H](C)C[C@H](CC=O)[C@H](O[C@@H]2O[C@H](C)[C@@H](O[C@H]3C[C@@](C)(OC(C)=O)[C@@H](OC(=O)CC)[C@H](C)O3)[C@H](N(C)C)[C@H]2O)[C@H]1OC
3. Oc1c(I)cc(Cl)c2cccnc12

Marked response:
1. > 3 µM
2. > 30 µM
3. > 30 µM

----------
Please go through the items and note down their AC50.
Target: UniProt P04150
Sequence (P04150 whole entry): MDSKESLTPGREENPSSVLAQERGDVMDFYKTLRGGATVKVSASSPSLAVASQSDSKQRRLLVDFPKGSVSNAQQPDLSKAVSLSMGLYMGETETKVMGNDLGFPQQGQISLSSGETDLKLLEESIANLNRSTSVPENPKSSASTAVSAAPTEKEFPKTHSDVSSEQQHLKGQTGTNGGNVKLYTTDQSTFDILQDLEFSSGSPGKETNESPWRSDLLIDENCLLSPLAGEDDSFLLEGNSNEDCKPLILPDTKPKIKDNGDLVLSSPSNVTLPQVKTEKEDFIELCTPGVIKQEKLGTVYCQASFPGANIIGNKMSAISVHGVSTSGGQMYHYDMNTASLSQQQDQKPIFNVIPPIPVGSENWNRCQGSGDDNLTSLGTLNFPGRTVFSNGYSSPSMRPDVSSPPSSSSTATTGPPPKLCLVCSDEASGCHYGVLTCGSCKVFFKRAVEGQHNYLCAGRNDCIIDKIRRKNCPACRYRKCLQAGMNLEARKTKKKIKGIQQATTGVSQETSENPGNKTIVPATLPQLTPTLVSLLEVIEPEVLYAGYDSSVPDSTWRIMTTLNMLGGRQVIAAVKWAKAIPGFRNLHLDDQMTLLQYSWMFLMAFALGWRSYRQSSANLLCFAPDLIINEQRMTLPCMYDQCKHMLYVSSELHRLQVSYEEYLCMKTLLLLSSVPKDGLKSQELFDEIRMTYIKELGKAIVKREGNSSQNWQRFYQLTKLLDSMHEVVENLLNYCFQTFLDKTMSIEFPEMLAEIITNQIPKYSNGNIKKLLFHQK

compound=CC(=O)S[C@@H]1CC2=CC(=O)CC[C@]2(C)[C@H]2CC[C@@]3(C)[C@@H](CC[C@@]34CCC(=O)O4)[C@H]12 experimental_readout=AC50 value_reported="0.19 µM"
compound=CC(=O)OCC[N+](C)(C)C experimental_readout=AC50 value_reported="> 30 µM"

Please give AC50, item by item, for the list that follows.
1. Nc1nc(F)nc2c1ncn2[C@@H]1O[C@H](COP(=O)(O)O)[C@@H](O)[C@@H]1O [FLUDARABINE PHOSPHATE]
2. CC(C)OC(=O)C(C(=O)OC(C)C)=C1SC=CS1 [MALOTILATE]
3. C=CC(N)CCC(=O)O (stereo not drawn)
4. N[C@H](Cc1cc(I)c(Oc2cc(I)c(O)c(I)c2)c(I)c1)C(=O)O
5. CN1C[C@H](C(=O)N[C@]2(C)O[C@@]3(O)[C@@H]4CCCN4C(=O)[C@H](Cc4ccccc4)N3C2=O)C[C@@H]2c3cccc4[nH]cc(c34)C[C@H]21 [DIHYDROERGOTAMINE]
6. COc1cc(OC)c(C(=O)CCCN2CCCC2)c(OC)c1

Marked response:
1. > 30 µM
2. > 30 µM
3. > 10 µM
4. 25 µM
5. > 30 µM
6. > 30 µM

----------
Molecular target: Muscarinic acetylcholine receptor M2 (Homo sapiens, UniProt P08172)
Sequence (P08172 whole entry): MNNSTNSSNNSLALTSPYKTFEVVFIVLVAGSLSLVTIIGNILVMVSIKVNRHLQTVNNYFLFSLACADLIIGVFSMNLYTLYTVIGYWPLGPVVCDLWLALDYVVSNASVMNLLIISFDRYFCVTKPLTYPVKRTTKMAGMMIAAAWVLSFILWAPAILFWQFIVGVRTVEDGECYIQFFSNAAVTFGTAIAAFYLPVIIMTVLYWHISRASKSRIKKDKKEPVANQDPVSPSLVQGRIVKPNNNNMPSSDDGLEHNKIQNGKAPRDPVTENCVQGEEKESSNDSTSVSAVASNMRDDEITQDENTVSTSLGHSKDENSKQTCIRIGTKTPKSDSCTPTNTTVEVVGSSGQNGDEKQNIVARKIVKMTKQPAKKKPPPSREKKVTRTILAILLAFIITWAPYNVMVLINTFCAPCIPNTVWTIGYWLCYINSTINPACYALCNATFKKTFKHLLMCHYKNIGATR
Format: functional, cell-based
Please go through the items and note down their AC50.

Solved cases (3 shown):
compound=CC(C)N(CCCCOCC(=O)NS(C)(=O)=O)c1cnc(-c2ccccc2)c(-c2ccccc2)n1 experimental_readout=AC50 value_reported="> 30 µM"
compound=COC1=C(OC)C(=O)C(CCCCCCCCCCO)=C(C)C1=O experimental_readout=AC50 value_reported="> 10 µM"
compound=CNC(=O)c1cc(Oc2ccc(NC(=O)Nc3ccc(Cl)c(C(F)(F)F)c3)c(F)c2)ccn1 experimental_readout=AC50 value_reported="> 30 µM"

Please give AC50, item by item, for the list that follows.
1. COc1cc2nccc(Oc3ccc(NC(=O)Nc4cc(C)on4)c(Cl)c3)c2cc1OC
2. NS(=O)(=O)c1cc(C(=O)O)cc(N2CCCC2)c1Oc1ccccc1 [PIRETANIDE]
3. COc1ccc(C(CN(C)C)C2(O)CCCCC2)cc1 (stereo not given)
4. Clc1ccc(C(Cn2ccnc2)OCc2ccc(Sc3ccccc3)cc2)c(Cl)c1 (stereo not given)
5. Cn1c(=O)c2[nH]cnc2n(C)c1=O

Marked response:
1: > 30 µM; 2: > 30 µM; 3: > 10 µM; 4: > 30 µM; 5: > 10 µM

Please give AC50, item by item, for the list that follows.
1. CCSc1ccc2c(c1)N(CCCN1CCN(C)CC1)c1ccccc1S2
2. C#C[C@]1(O)CC[C@H]2[C@@H]3CCc4cc(OC)ccc4[C@H]3CC[C@@]21C

Marked response:
["> 30 µM", "> 10 µM"]

----------
The following compounds each carry a recorded AC50 for Alpha-1A adrenergic receptor (Homo sapiens).

compound="N[C@H](Cc1cc(I)c(Oc2cc(I)c(O)c(I)c2)c(I)c1)C(=O)O [DEXTROTHYROXINE]" value_reported="> 10 µM"
compound="COCCCOc1ccnc(C[S+]([O-])c2nc3ccccc3[nH]2)c1C (stereo not given) [RABEPRAZOLE]" value_reported="> 10 µM"
compound="CC1(C)C(C=C(Cl)Cl)C1C(=O)OCc1cccc(Oc2ccccc2)c1 (stereo not given) [PERMETHRIN]" value_reported="> 10 µM"
compound="CCCCCCNC(=O)n1cc(F)c(=O)[nH]c1=O [CARMOFUR]" value_reported="> 30 µM"
compound="CC(=O)OCC[N+](C)(C)C [ACETYLCHOLINE]" value_reported="> 10 µM"

Please give AC50, item by item, for the list that follows.
1. O=C1NC(=O)C(c2ccccc2)(c2ccccc2)N1 [PHENYTOIN]
2. O=C(O)c1ccccc1Nc1cccc(C(F)(F)F)c1 [FLUFENAMIC ACID]

Marked response:
1. > 10 µM
2. 1 µM

Please give AC50, item by item, for the list that follows.
1. C[C@]12CC[C@H](O)CC1=CC[C@@H]1[C@@H]2CC[C@]2(C)C(c3cccnc3)=CC[C@@H]12 [ABIRATERONE]
2. O=C1CN2Cc3c(ccc(Cl)c3Cl)N=C2N1 [ANAGRELIDE]

Marked response:
> 10 µM
> 10 µM
